Data credit: BindingDB's records for doi:10.1111/j.1476-5381.1993.tb13617.x

- target: 5-hydroxytryptamine receptor 4 (Cavia porcellus, UniProt O70528)
- Sequence (O70528 whole entry): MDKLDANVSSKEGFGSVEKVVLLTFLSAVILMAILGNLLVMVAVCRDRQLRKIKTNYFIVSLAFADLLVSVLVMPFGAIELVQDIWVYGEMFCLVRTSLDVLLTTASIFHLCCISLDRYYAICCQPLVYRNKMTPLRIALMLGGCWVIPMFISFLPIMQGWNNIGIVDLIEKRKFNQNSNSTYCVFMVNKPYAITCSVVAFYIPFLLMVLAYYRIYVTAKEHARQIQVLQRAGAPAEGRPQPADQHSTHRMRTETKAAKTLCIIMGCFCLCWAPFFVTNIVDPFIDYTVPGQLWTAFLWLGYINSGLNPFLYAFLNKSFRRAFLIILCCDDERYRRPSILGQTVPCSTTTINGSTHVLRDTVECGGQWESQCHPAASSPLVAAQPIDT
measured attribute: pKi
One number for each entry, as −log10 of the molar value.

Use the examples below as a reference point.
CCn1c(=O)n(C(=O)NC2CC3CCC(C2)N3C)c2ccccc21 (stereo not drawn) [BIMU 1] ... 7.80
Cn1cc(CCN)c2cc(O)ccc21 [5-HT,omega-N-Me] ... 5.80

Req: Given NCCc1c[nH]c2ccc(C(N)=O)cc12 [[3H]-5-carboxamidotryptamine] , state its recorded pKi.
Resp: 5.20
